Assign MIC to each entry below.
System: Lactobacillus crispatus
Test: Antibacterial activity against Lactobacillus crispatus HM-103 assessed as reduction in microbial growth after 48 hrs by broth microdilution method

In: Endpoint output: MIC of `O=C(Nc1nnc(-c2cc(Cl)cc(Cl)c2)o1)c1ccc(SC(F)(F)F)cc1` . Value?
Out: 36.8 µM

In: Next record, please: `CN[C@H](CC(C)C)C(=O)N[C@H]1C(=O)N[C@@H](CC(N)=O)C(=O)N[C@H]2C(=O)N[C@H]3C(=O)N[C@H](C(=O)N[C@H](C(=O)O)c4cc(O)cc(O)c4-c4cc3ccc4O)[C@H](O)c3ccc(c(Cl)c3)Oc3cc2cc(c3O[C@@H]2O[C@H](CO)[C@@H](O)[C@H](O)[C@H]2O[C@H]2C[C@](C)(N)[C@H](O)[C@H](C)O2)Oc2ccc(cc2Cl)[C@H]1O`
Out: 1.4 µM

In: Next record, please: `Cc1ncc([N+](=O)[O-])n1CCO`
Out: > 373.9 µM

In: Next record, please: `CCc1c(Cl)c(O)c(Cl)c(O)c1C(=O)O[C@H]1[C@H](O)[C@H](OC)[C@H](OC/C2=C\C=C\C[C@H](O)/C(C)=C/[C@H](CC)[C@@H](O[C@@H]3OC(C)(C)[C@@H](OC(=O)C(C)C)[C@H](O)[C@@H]3O)/C(C)=C/C(C)=C/C[C@@H]([C@@H](C)O)OC2=O)O[C@@H]1C`
Out: > 60.5 µM

###

Assign MIC to each entry below.
Test system: Lactobacillus crispatus
Experiment: Antibacterial activity against Lactobacillus crispatus HM-371 assessed as reduction in microbial growth after 48 hrs by broth microdilution method

In: Endpoint output: MIC of `O=C(Nc1nnc(-c2cc(Cl)cc(Cl)c2)o1)c1ccc(SC(F)(F)F)cc1` . Value?
Out: 36.8 µM

In: Next record, please: Cc1ncc([N+](=O)[O-])n1CCO [METRONIDAZOLE]
Out: > 373.9 µM

In: Next record, please: CCc1c(Cl)c(O)c(Cl)c(O)c1C(=O)O[C@H]1[C@H](O)[C@H](OC)[C@H](OC/C2=C\C=C\C[C@H](O)/C(C)=C/[C@H](CC)[C@@H](O[C@@H]3OC(C)(C)[C@@H](OC(=O)C(C)C)[C@H](O)[C@@H]3O)/C(C)=C/C(C)=C/C[C@@H]([C@@H](C)O)OC2=O)O[C@@H]1C [FIDAXOMICIN]
Out: > 60.5 µM

In: Next record, please: CN[C@H](CC(C)C)C(=O)N[C@H]1C(=O)N[C@@H](CC(N)=O)C(=O)N[C@H]2C(=O)N[C@H]3C(=O)N[C@H](C(=O)N[C@H](C(=O)O)c4cc(O)cc(O)c4-c4cc3ccc4O)[C@H](O)c3ccc(c(Cl)c3)Oc3cc2cc(c3O[C@@H]2O[C@H](CO)[C@@H](O)[C@H](O)[C@H]2O[C@H]2C[C@](C)(N)[C@H](O)[C@H](C)O2)Oc2ccc(cc2Cl)[C@H]1O [VANCOMYCIN]
Out: 1.4 µM

###

Test system: Enterococcus faecalis
Experiment: Antimicrobial activity against vancomycin-resistant Enterococcus […] ATCC 51299 assessed as reduction in microbial growth after 48 hrs by CLSI based broth microdilution method
Type: functional
Assign MIC to each entry below.
State just the number; it will be interpreted in µM.

In: Any idea what MIC came out for `CC(=O)NC[C@H]1CN(c2ccc(N3CCOCC3)c(F)c2)C(=O)O1` on Enterococcus faecalis?
Out: 3

In: Next record, please: `O=C(Nc1nnc(-c2cc(Cl)cc(Cl)c2)o1)c1ccc(SC(F)(F)F)cc1`
Out: 0.14

###

System: Lactobacillus gasseri
Experiment: Antibacterial activity against Lactobacillus gasseri HM-400 assessed as reduction in microbial growth after 48 hrs by broth microdilution method
Assign MIC to each entry below.

In: Endpoint output: MIC of Cc1ncc([N+](=O)[O-])n1CCO [METRONIDAZOLE] . Value?
Out: > 373.9 µM

In: Next record, please: CCc1c(Cl)c(O)c(Cl)c(O)c1C(=O)O[C@H]1[C@H](O)[C@H](OC)[C@H](OC/C2=C\C=C\C[C@H](O)/C(C)=C/[C@H](CC)[C@@H](O[C@@H]3OC(C)(C)[C@@H](OC(=O)C(C)C)[C@H](O)[C@@H]3O)/C(C)=C/C(C)=C/C[C@@H]([C@@H](C)O)OC2=O)O[C@@H]1C [FIDAXOMICIN]
Out: > 60.5 µM

In: Next record, please: `O=C(Nc1nnc(-c2cc(Cl)cc(Cl)c2)o1)c1ccc(SC(F)(F)F)cc1`
Out: 36.8 µM

###

Assign MIC to each entry below.
System: Phocaeicola dorei
Assay: Antibacterial activity against Bacteroides dorei HM-719 assessed as reduction in microbial growth after 48 hrs by broth microdilution method
Type: organism-based
State just the number; it will be interpreted in µM.

In: Endpoint output: MIC of `O=C(Nc1nnc(-c2cc(Cl)cc(Cl)c2)o1)c1ccc(SC(F)(F)F)cc1` . Value?
Out: 4.6

In: Next record, please: CN[C@H](CC(C)C)C(=O)N[C@H]1C(=O)N[C@@H](CC(N)=O)C(=O)N[C@H]2C(=O)N[C@H]3C(=O)N[C@H](C(=O)N[C@H](C(=O)O)c4cc(O)cc(O)c4-c4cc3ccc4O)[C@H](O)c3ccc(c(Cl)c3)Oc3cc2cc(c3O[C@@H]2O[C@H](CO)[C@@H](O)[C@H](O)[C@H]2O[C@H]2C[C@](C)(N)[C@H](O)[C@H](C)O2)Oc2ccc(cc2Cl)[C@H]1O [VANCOMYCIN]
Out: 44.2

In: Next record, please: Cc1ncc([N+](=O)[O-])n1CCO [METRONIDAZOLE]
Out: 5.84

###

System: Bacteroides fragilis
Assay: Antibacterial activity against Bacteroides fragilis HM-711 assessed as reduction in microbial growth after 48 hrs by broth microdilution method
Format: organism-based
Experimental Endpoint: MIC (µM)
State just the number; it will be interpreted in µM.

In: Any idea what MIC came out for `O=C(Nc1nnc(-c2cc(Cl)cc(Cl)c2)o1)c1ccc(SC(F)(F)F)cc1` on Bacteroides fragilis?
Out: 4.6

In: Next record, please: `CN[C@H](CC(C)C)C(=O)N[C@H]1C(=O)N[C@@H](CC(N)=O)C(=O)N[C@H]2C(=O)N[C@H]3C(=O)N[C@H](C(=O)N[C@H](C(=O)O)c4cc(O)cc(O)c4-c4cc3ccc4O)[C@H](O)c3ccc(c(Cl)c3)Oc3cc2cc(c3O[C@@H]2O[C@H](CO)[C@@H](O)[C@H](O)[C@H]2O[C@H]2C[C@](C)(N)[C@H](O)[C@H](C)O2)Oc2ccc(cc2Cl)[C@H]1O`
Out: 44.2

In: Next record, please: `Cc1ncc([N+](=O)[O-])n1CCO`
Out: 5.84

###

Test system: Bacteroides fragilis
Test: Antibacterial activity against Bacteroides fragilis HM-709 assessed as reduction in microbial growth after 48 hrs by broth microdilution method
Assay type: organism-based
Assign MIC to each entry below.
State just the number; it will be interpreted in µM.

In: Endpoint output: MIC of Cc1ncc([N+](=O)[O-])n1CCO [METRONIDAZOLE] . Value?
Out: 11.68

In: Next record, please: `O=C(Nc1nnc(-c2cc(Cl)cc(Cl)c2)o1)c1ccc(SC(F)(F)F)cc1`
Out: 2.3

In: Next record, please: CN[C@H](CC(C)C)C(=O)N[C@H]1C(=O)N[C@@H](CC(N)=O)C(=O)N[C@H]2C(=O)N[C@H]3C(=O)N[C@H](C(=O)N[C@H](C(=O)O)c4cc(O)cc(O)c4-c4cc3ccc4O)[C@H](O)c3ccc(c(Cl)c3)Oc3cc2cc(c3O[C@@H]2O[C@H](CO)[C@@H](O)[C@H](O)[C@H]2O[C@H]2C[C@](C)(N)[C@H](O)[C@H](C)O2)Oc2ccc(cc2Cl)[C@H]1O [VANCOMYCIN]
Out: 22.1

Origin of values: ChEMBL document CHEMBL4665831
